target: Human CB2R (Cannabanoid receptor 2) (Homo sapiens (Human), UniProt P34972); test: CB-2 in vitro cAMP assay (HTRF); details: mean where tested more than once
Sequence (P34972 whole entry): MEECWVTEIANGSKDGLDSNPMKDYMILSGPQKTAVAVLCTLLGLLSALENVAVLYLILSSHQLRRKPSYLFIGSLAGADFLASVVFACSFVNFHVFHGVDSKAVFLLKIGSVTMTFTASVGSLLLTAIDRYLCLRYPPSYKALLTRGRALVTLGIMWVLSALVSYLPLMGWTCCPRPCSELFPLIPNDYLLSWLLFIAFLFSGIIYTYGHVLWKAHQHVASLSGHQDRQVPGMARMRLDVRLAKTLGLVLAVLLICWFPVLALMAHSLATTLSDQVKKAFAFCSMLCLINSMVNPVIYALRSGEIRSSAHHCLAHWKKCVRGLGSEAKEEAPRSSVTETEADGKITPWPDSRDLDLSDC
OBSERVABLE: EC50 (nM)
Unit nM implied. Number only.

Challenge: Fill in: EC50 of O=C(O)c1ccc(N2CCC(Nc3ncnc4ccc(C(c5ccc(Cl)cc5)c5ccc(Cl)cc5)cc34)CC2)cc1 [Compound #92] is ___
Response given: 195

Challenge: Fill in: EC50 of CCOC(=O)COc1ccc(S(=O)(=O)N2CCC(Nc3ncnc4ccc(C(c5ccc(Cl)cc5)c5ccc(Cl)cc5)cc34)CC2)cc1 [Compound #4] is ___
Response given: 170

Challenge: Fill in: EC50 of O=C(O)COc1nc(NCc2cccc(C(F)(F)F)c2)c2cc(C(c3ccc(Cl)cc3)c3ccc(Cl)cc3)ccc2n1 [compound 51] is ___
Response given: 3340

Challenge: Fill in: EC50 of Clc1ccc(C(c2ccc(Cl)cc2)c2ccc3ncnc(NC4CCN(c5ncccn5)CC4)c3c2)cc1 [Compound #139] is ___
Response given: 771

###

molecular target: Human CB2R (Cannabanoid receptor 2) (Homo sapiens (Human), UniProt P34972); test: CB-2 in vitro cAMP assay (HTRF); conditions: mean where tested more than once
pEC50: −log10 of the molar value.
Decision: pEC50 compared against 6; not below it gives met, below it gives not met.

Challenge: Assess whether reported pEC50 for FC(F)(F)CN1CCC(Nc2ncnc3ccc(C(c4ccc(Cl)cc4)c4ccc(Cl)cc4)cc23)CC1 sits at 6 or higher.
Response given: met

Challenge: Assess whether reported pEC50 for Oc1ccc(CN2CCC(Nc3ncnc4ccc(C(c5ccc(Cl)cc5)c5ccc(Cl)cc5)cc34)CC2)cc1 sits at 6 or higher.
Response given: not met

Challenge: Assess whether reported pEC50 for CNc1nc(NC2CCN(S(=O)(=O)C(F)(F)F)CC2)c2cc(C(c3ccc(Cl)cc3)c3ccc(Cl)cc3)ccc2n1 sits at 6 or higher.
Response given: not met

Challenge: Assess whether reported pEC50 for CCOC(=O)CC(=O)N1CCC(Nc2ncnc3ccc(C(c4ccc(Cl)cc4)c4ccc(Cl)cc4)cc23)CC1 sits at 6 or higher.
Response given: not met

Challenge: Assess whether reported pEC50 for O=S(=O)(N1CCC(Nc2ncnc3ccc(C(c4ccc(Cl)cc4)c4ccc(Br)cc4)cc23)CC1)C(F)(F)F (centres unmarked) sits at 6 or higher.
Response given: met

Challenge: Assess whether reported pEC50 for OC1(c2ccccc2)CCC(Nc2ncnc3ccc(C(c4ccc(Cl)cc4)c4ccc(Cl)cc4)cc23)CC1 (centres unmarked) sits at 6 or higher.
Response given: not met

Challenge: Assess whether reported pEC50 for OCCOc1nc(NCc2cccc(C(F)(F)F)c2)c2cc(C(c3ccc(Cl)cc3)c3ccc(Cl)cc3)ccc2n1 sits at 6 or higher.
Response given: not met

Challenge: Assess whether reported pEC50 for O=C(O)c1ccc(S(=O)(=O)N2CCC(Nc3ncnc4ccc(C(c5ccc(Cl)cc5)c5ccc(Cl)cc5)cc34)CC2)s1 sits at 6 or higher.
Response given: met

Challenge: Assess whether reported pEC50 for OCC(CO)COc1nc(NCc2cccc(C(F)(F)F)c2)c2cc(C(c3ccc(Cl)cc3)c3ccc(Cl)cc3)ccc2n1 sits at 6 or higher.
Response given: not met

Challenge: Assess whether reported pEC50 for CCOC(=O)CCC(=O)N1CCC(Nc2ncnc3ccc(C(c4ccc(Cl)cc4)c4ccc(Cl)cc4)cc23)CC1 sits at 6 or higher.
Response given: met

Challenge: Assess whether reported pEC50 for O=C(O)c1ccc(C(c2ccc(Cl)cc2)c2ccc3ncnc(NC4CCN(S(=O)(=O)C(F)(F)F)CC4)c3c2)cc1 (centres unmarked) sits at 6 or higher.
Response given: not met
